Target sequence: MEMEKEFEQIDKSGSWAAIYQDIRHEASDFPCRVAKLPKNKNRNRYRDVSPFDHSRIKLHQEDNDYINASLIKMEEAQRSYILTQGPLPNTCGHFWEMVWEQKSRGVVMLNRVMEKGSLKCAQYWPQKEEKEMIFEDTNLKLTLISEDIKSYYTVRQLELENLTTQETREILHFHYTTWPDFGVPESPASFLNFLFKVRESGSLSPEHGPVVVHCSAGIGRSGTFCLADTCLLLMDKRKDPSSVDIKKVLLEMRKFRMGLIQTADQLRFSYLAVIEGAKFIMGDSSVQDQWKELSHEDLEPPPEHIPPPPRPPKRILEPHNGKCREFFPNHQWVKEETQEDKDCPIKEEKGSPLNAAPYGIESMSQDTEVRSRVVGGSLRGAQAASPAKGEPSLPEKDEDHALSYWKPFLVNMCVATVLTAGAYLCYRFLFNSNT
Listed here are molecules together with their documented pKi.
In simple prose, pKi is minus the logarithm base ten of a concentration in moles per litre.

Entry under review: COc1c(C2=NOC(c3ccccn3)C2)ccc2c1C=CC(C)(C)O2 (configuration not stated) [PTP1B Inhibitor, 7] . Reported pKi?
4.47

Entry under review: COc1cc(C=O)ccc1C1=NOC(c2ccncc2)C1 (configuration not stated) [PTP1B Inhibitor, 13] . Reported pKi?
3.82

Entry under review: COC(=O)C1C(c2ccc(C=O)cc2OC)=NOC1c1ccccc1 (configuration not stated) [PTP1B Inhibitor, 15] . Reported pKi?
3.87

Entry under review: COc1cc(C=O)ccc1C1=NOC(c2ccccn2)C1 (configuration not stated) [PTP1B Inhibitor, 12] . Reported pKi?
3.77

Entry under review: COc1ccc(C2CC(c3ccc4c(c3OC)C=CC(C)(C)O4)=NO2)cc1 (configuration not stated) [PTP1B Inhibitor, 6] . Reported pKi?
4.25

***
Entry under review: COc1cc(C=O)ccc1C1=NOC(c2ccccc2)C1 (configuration not stated) [PTP1B Inhibitor, 10] . Reported pKi?
4.32

Entry under review: COc1ccc(C2CC(c3ccc(C=O)cc3OC)=NO2)cc1 (configuration not stated) [PTP1B Inhibitor, 11] . Reported pKi?
4.32
